- TARGET UNDER TEST: CsRecQ catalytic core S245A (Cronobacter sakazakii, UniProt A7MQK9 1-521, S245A)
- TEST PROTOCOL: fluorescence anisotropy; apparent Kd; 1 mM Mg2+; 20 mM Tris-HCl pH 8.0, 100 mM NaCl, 1 mM MgCl2, 1 mM 2-mercaptoethanol, 0.1 mg/mL BSA, 4% glycerol; 5 nM DNA, 30 min at room temperature, read at 25 C (G4 folded in 10 mM Tris-HCl pH 8.0, 100 mM KCl)
- EXPERIMENTAL CONDITIONS: protein: recombinant; tags: N-terminal His tag removed (thrombin); label: 3' FAM on Duplex 1; 18 bp, 3' overhang 12 nt on strand 1

BINDER: Duplex 1/Duplex 2 (dsDNA) DNA 1: GCGTGGGTAATTGTGCTTCAATGGACTGAC DNA 2: AAGCACAATTACCCACGC
RESULT UNITS: µM
Kd: 4
